Assign Inhibition to each entry below.
Tested on: Candida albicans
Conditions: Concentration 32 ug.mL-1; ASSAY_TEST Inhibition of Fungal Growth; detection method Absorption (OD530)
Description: Antifungal activity against Candida albicans ATCC 90028 (CO-ADD:FG_001); MIC in YNB media using NBS plates, by OD630
Potency and affinity values are given separately.
All answers are understood in %, so give the number only.

QUERY: State its Inhibition: O=C(CSc1nnc2c(=O)n(-c3ccc(F)cc3)ccn12)N1CCN(c2ccc(F)cc2)CC1
RESULT: -0.55

QUERY: State its Inhibition: COc1cc(OC)c(NC(=O)Cn2nc3c(N4CCOCC4)nccn3c2=O)cc1Cl
RESULT: 3.65

QUERY: State its Inhibition: COc1ccc(-n2ccn3c(-c4cccc([N+](=O)[O-])c4)nnc3c2=O)cc1
RESULT: 0.19

QUERY: State its Inhibition: COCCCNC(=O)CSc1nnc2c(=O)n(Cc3ccccc3F)ccn12
RESULT: 4.29

QUERY: State its Inhibition: CC(C)Cn1c(=O)c2sccc2n2c(=O)n(CC(=O)N(C)c3ccccc3)nc12
RESULT: -0.55

QUERY: State its Inhibition: COc1ccccc1-n1ccn2c(SCc3ccccc3Cl)nnc2c1=O
RESULT: 2.3

QUERY: State its Inhibition: O=S(=O)(Nc1ccc2c(c1)OCCO2)c1ccc2nncn2c1
RESULT: 2.83

QUERY: State its Inhibition: COc1ccc(CNC(=O)Cn2nc3c(Oc4ccccc4C)nccn3c2=O)cc1
RESULT: -2.47

QUERY: State its Inhibition: O=c1c2sccc2n2c(SCc3cccc(C(F)(F)F)c3)nnc2n1Cc1cccs1
RESULT: 16.7

QUERY: State its Inhibition: O=C(Cn1nc2c(SCc3ccc(Cl)cc3)nccn2c1=O)N1CCN(c2ccccc2)CC1
RESULT: 4.87

QUERY: State its Inhibition: N#Cc1cccc(NC(=O)CSc2nnc3c4cc(-c5ccccc5)nn4ccn23)c1
RESULT: 7.44

QUERY: State its Inhibition: NC(=O)C1CCN(C(=O)CCc2nnc3c(N4CCCCC4)nc4ccccc4n23)CC1
RESULT: 1.8

QUERY: State its Inhibition: COc1ccc(-c2cc3c4nnc(CCC(=O)N5CCN(c6ccccc6F)CC5)n4ccn3n2)cc1
RESULT: 2.19
